For each record, write down the corresponding G1/G0 population.
System: S. cerevisiae BY4741 DNA content flow cytometry, cell cycle
experiment-notes: S. cerevisiae cell cycle DNA content profile – flow cytometry (AID 504936);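 note: yeast exposed to compound for three five or seven days before fixation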
experimental-context: at 10 µM; stronger effect = higher value
Numbers only, in %.

Known G1/G0 population results, listed for orientation:
[
  {
    "molecular-string": "Nc1cc2nc3ccccc3nc2cc1N",
    "readout-type": "G1/G0 population",
    "display-unit": "%",
    "data-value": 79
  },
  {
    "molecular-string": "Cc1ccc(-c2nn(C(C)(C)C)c3ncnc(N)c23)cc1",
    "readout-type": "G1/G0 population",
    "display-unit": "%",
    "data-value": 70.3
  },
  {
    "molecular-string": "O=C(/C=C/c1ccccc1)NC(=S)NNC(=O)Cc1cccs1",
    "readout-type": "G1/G0 population",
    "display-unit": "%",
    "data-value": 80.1
  }
]

Each compound below has a recorded value; state its G1/G0 population.
1. CC(C)(C)Nc1ncnc2c1cnn2-c1ccccc1
2. CSc1nnc(-c2ccc([N+](=O)[O-])cc2)o1
3. COc1ccc2nc3ccccc3nc2c1NC(=O)c1ccccc1Cl

1. 62.9
2. 79.2
3. 79.9

---

Test system: S. cerevisiae BY4741 DNA content flow cytometry, cell cycle
experiment-notes: S. cerevisiae cell cycle DNA content profile – flow cytometry (AID 504936);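 note: yeast exposed to compound for three five or seven days before fixation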
experimental-context: measured here: G2 phase fraction; at 10 µM; stronger effect = lower value
// NB: equality with 10% counts as Not satisfied; only G2 population strictly below is Satisfied

Solved entries:
[
  {
    "compound": "O=c1[nH]c(O)c(C=Nc2ccc(F)c(Cl)c2)c(=O)[nH]1",
    "answer-label": "Not satisfied"
  },
  {
    "compound": "Cc1cc(C)c2[nH]c3nc(SCC(=O)O)nnc3c2c1",
    "answer-label": "Not satisfied"
  }
]

Regarding CNc1ccc2nc3ccccc3[n+](C)c2c1 , kindly confirm whether its G2 population is beneath 10%.
Satisfied

Another compound to check: Cc1cc(C)cc(NC(=O)CN2CCN(c3ccccn3)CC2)c1
Not satisfied

Another compound to check: COc1cccc2nc3cc(C)c(C)cc3nc12
Not satisfied

Another compound to check: O=C(/C=C/c1ccccc1)NC(=S)NNC(=O)Cc1cccs1
Satisfied

---

Test system: S. cerevisiae BY4741 DNA content flow cytometry, cell cycle
experiment-notes: S. cerevisiae cell cycle DNA content profile – flow cytometry (AID 504936);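 note: yeast exposed to compound for three five or seven days before fixation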
experimental-context: at 10 µM; stronger effect = higher value
readout-type: G1/G0 population (%)
Answers are plain numbers, in %.

Known G1/G0 population results, listed for orientation:
[
  {
    "compound": "CCc1nc(NC(C)(C)C)c2cnn(-c3ccccc3)c2n1",
    "target-system": "S. cerevisiae BY4741 DNA content flow cytometry, cell cycle",
    "G1/G0 population, %": 75.3
  },
  {
    "compound": "O=C(Nc1cccc(Cl)c1)Nc1ccc2nccnc2c1",
    "target-system": "S. cerevisiae BY4741 DNA content flow cytometry, cell cycle",
    "G1/G0 population, %": 77.4
  },
  {
    "compound": "CCC(=Nc1ccccc1O)C1=C(O)CC(c2ccccc2)CC1=O (stereo not given)",
    "target-system": "S. cerevisiae BY4741 DNA content flow cytometry, cell cycle",
    "G1/G0 population, %": 74.7
  }
]

Each compound below has a recorded value; state its G1/G0 population.
1. COc1ccc2nc3ccccc3nc2c1N
2. Cc1cc(C)c2[nH]c3nc(SCC(=O)O)nnc3c2c1
3. Cn1c(O)c(C(=Nc2ccc(F)cc2)c2ccccc2Cl)c(=O)n(C)c1=O
4. Cc1cc2nc3ccc(N(C)C)cc3nc2cc1N
5. OCC[n+]1c2ccccc2nc2ccc(N3CCOCC3)cc21
6. O=C(c1cccc2nc3ccccc3nc12)N1CCOCC1
7. CC(=O)Nc1ccc2nc3ccccc3nc2c1

56.9
79.8
72
67.3
74.9
76.5
72.9

Each compound below has a recorded value; state its G1/G0 population.
1. O=C(Nc1ccc2nc3ccccc3nc2c1)c1ccc(Br)cc1
2. O=c1[nH]c(O)c(C=Nc2ccc(F)c(Cl)c2)c(=O)[nH]1

1: 77.7; 2: 78.7

Each compound below has a recorded value; state its G1/G0 population.
1. C[n+]1c2ccccc2nc2ccc(NCCO)cc21
2. COc1cccc2nc3cc(C)c(C)cc3nc12
3. C=CCSc1ccc(-c2ccc([N+](=O)[O-])cc2)o1
4. FC(F)(F)c1nc2cc3nc4ccccc4[nH]c3cc2n1
5. CCN(CC)C(=O)c1cccc2nc3ccccc3nc12
6. COc1ccc2cc(C3CC(c4ccco4)=NN3S(=O)(=O)c3ccccc3)c(Cl)nc2c1 (stereo not given)
7. Cc1ccccc1NC(=O)c1cccc2nc3ccccc3nc12

[77.6, 64.8, 65.8, 71.5, 42.7, 79, 72.9]

Each compound below has a recorded value; state its G1/G0 population.
1. Cn1c(=O)[nH]c2nncnc2c1=O
2. C=CCOn1c(=O)c(-c2cccs2)[n+]([O-])c2ccccc21
3. CCN(CC)C(=O)c1ccc2nc3ccccc3nc2c1
4. c1ccc2[nH]c3cc4ncnc4cc3nc2c1
5. Oc1cccc2nc3ccccc3nc12
6. CC(C)(C)n1nc(-c2ccc(F)cc2)c2c(N)ncnc21

73.1
73.2
78.8
58.6
43
70.5

// provenance: PubChem BioAssay AID504936
